measurement_target: Human immunodeficiency virus type 1 reverse transcriptase (Human immunodeficiency virus 1, UniProt Q72547, K103N)
assay_method_text: Inhibition of HIV1 reverse transcriptase K103N mutant assessed as 32P-labeled GMP incorporation into nascent DNA strand
Entries and their pIC50 values follow.
# pIC50 is unitless: minus log10 of the molar concentration; print number only

CCc1c(Oc2cc(C)cc(C)c2)n(CC2CCC2)c(=O)[nH]c1=O: 6.54
Cc1cc(C)cc(C(=O)c2c(C(C)C)c(=O)[nH]c(=O)n2CC2CCCCC2)c1: 4.78
CCc1c(Oc2cc(C)cc(C)c2)n(CCC2CC=CC2)c(=O)[nH]c1=O: 5.01
Cc1cc(C)cc(Oc2c(C(C)C)c(=O)[nH]c(=O)n2CC2CC=CC2)c1: 5.72
CCc1c(C(=O)c2cc(C)cc(C)c2)n(CC2CC=CC2)c(=O)[nH]c1=O: 5.59
CCc1c(Oc2cc(C)cc(C)c2)n(CC2CC=CC2)c(=O)[nH]c1=O: 5.29

Param item = Cc1cc(C)cc(Oc2c(C(C)C)c(=O)[nH]c(=O)n2CCC2C=CCC2)c1 (stereo unspecified) ; retrieve measured pIC50. 5.82

Endpoint output: pIC50 of "CCc1c(Oc2cc(C)cc(C)c2)n(CC2CCCC2)c(=O)[nH]c1=O" . Value? 6.57

What value of pIC50 has been recorded for this entry: "Cc1cc(C)cc(C(=O)c2c(C(C)C)c(=O)[nH]c(=O)n2CCC2=CCCC2)c1" 3.64

Given the compound "CCc1c(Oc2ccccc2)n(CC2CC=CC2)c(=O)[nH]c1=O" , what is its reported pIC50? 4.32

====

assay_method_text: Therapeutic index, ratio of TC50 for human CEM-SS cells to EC50 for HIV1 RF infected in human CEM-SS cells
Assay type: cell-based
setup_conditions: read-out: TI
Classification field: y = selectivity ratio at or over 1000; n = selectivity ratio under 1000.

Field: example entries. Status: answers known.
CCc1c(C(=O)c2cc(C)cc(C)c2)n(CC2CC=CC2)c(=O)[nH]c1=O: y
Cc1cc(C)cc(C(=O)c2c(C(C)C)c(=O)[nH]c(=O)n2CCC2C=CCC2)c1 (stereo unspecified): y
CCc1c(Sc2cc(C)cc(C)c2)n(CC2CC=CC2)c(=O)[nH]c1=O: y
CCc1c(Sc2cc(C)cc(C)c2)n(CCC2=CCCC2)c(=O)[nH]c1=O: n
CCc1c(Oc2cc(C)cc(C)c2)n(CC2CC=CC2)c(=O)[nH]c1=O: y
CCc1c(Sc2cc(C)cc(C)c2)n(CC2=CCCC2)c(=O)[nH]c1=O: y

Moving on to the next compound.
Check if selectivity ratio >= 1000 (inclusive). Item: "CCc1c(Oc2cc(C)cc(C)c2)n(CCC2CC=CC2)c(=O)[nH]c1=O" y

====

assay_method_text: Therapeutic index, ratio of TC50 for human CEM-SS cells to EC50 for HIV2 ROD infected in human CEM-SS cells
Type: cell-based
setup_conditions: CEM-SS cells, read-out: TI
# binarize selectivity ratio: threshold 100 inclusive, high side 1, low side -1

Assess whether reported selectivity ratio for "Cc1cc(C)cc(C(=O)c2c(C(C)C)c(=O)[nH]c(=O)n2CC2=CCCC2)c1" sits at 100 or higher. 1

selectivity ratio >= 100 for "Cc1cc(C)cc(Sc2c(C(C)C)c(=O)[nH]c(=O)n2CC2CCC2)c1" ? -1

Please tell me: is the compound "CCc1c(Sc2cc(C)cc(C)c2)n(Cc2ccccc2)c(=O)[nH]c1=O" at or over 100 in terms of selectivity ratio? 1

Entry "Cc1cc(C)cc(Oc2c(C(C)C)c(=O)[nH]c(=O)n2CC2=CCCC2)c1" : is its selectivity ratio no less than 100? -1

Evaluate "CCc1c(C(=O)c2cc(C)cc(C)c2)n(CC2CCC2)c(=O)[nH]c1=O" : selectivity ratio at minimum 100? 1

Is the recorded value of selectivity ratio equal to or greater than 100 for this compound? "Cc1cc(C)cc(Oc2c(C(C)C)c(=O)[nH]c(=O)n2CC2CC2)c1" -1

// inclusive: selectivity ratio at least 100? input: "Cc1cc(C)cc(Sc2c(C(C)C)c(=O)[nH]c(=O)n2Cc2ccccc2)c1" 1

Please check the record "CCc1c(Oc2cc(C)cc(C)c2)n(CCC2CC=CC2)c(=O)[nH]c1=O" and state if its selectivity ratio is at or above 100. 1

State whether the measured selectivity ratio reaches 100, counting equality as reaching it, for "Cc1cc(C)cc(C(=O)c2c(C(C)C)c(=O)[nH]c(=O)n2CC2CCC2)c1" -1
